The following molecules are listed with their measured pEC50 values.
# Test system: MPXV^SPL2A7 (Clade IIb)
# assay procedure: microbe, parasite or virus in culture
# Assay type: cell-based
# protocol conditions: Monkeypox virus, Vero C1008, 120 h, read-out: EC50 against MPXV^SPL2A7
// pEC50 is dimensionless: -log10 of concentration (M)

The examples below pair each entry with its known result.
INSERT INTO measurements (compound_structure, observed_result) VALUES
  ('O=c1[nH]c(=O)n([C@H]2C[C@H](O)[C@@H](CO)O2)cc1C(F)(F)F', 5.21),
  ('CCCCCCCCCCCCCCCCOCCCOP(=O)(O)CO[C@H](CO)Cn1ccc(N)nc1=O', 5.69),
  ('O=C(NN1C(=O)[C@@H]2[C@@H]3C=C[C@@H]([C@H]4C[C@@H]34)[C@@H]2C1=O)c1ccc(C(F)(F)F)cc1', 9.00),
  ('Nc1ccn([C@@H]2O[C@H](CO)[C@@H](O)C2(F)F)c(=O)n1', 7.70);

--- query ---
Return pEC50 for the following molecule: `Nc1ccn(C[C@@H](CO)OCP(=O)(O)O)c(=O)n1`
4.91

Values from paper PMC12396559
